# experiment description: soluble on expression in E. coli; label from the status in PepcDB or PDB records

| polymer sequence | soluble on expression in E. coli |
| --- | --- |
| MGSDKIHHHHHHASHYLLLGGSGWDKIAIVNKNTKEIEWEHPLEKGWECNSVAVTPDRNILFSYSKGAKLITRDHEEVWNISAPEGCEMQTARVLPNGNYLLAWCGYPATIMEVNAKGEILSKTDFDTHIEQPHAQFRQVNKNKQGNYLVPLFATSEIREISPSGQLLKSVKVDGNPFSVAALDNGNYLVACGDAHCFIELNFETGDIVRKVNENDIEGAQLFFVAQLLPKRDGGLYICNWQGHDGEAAKGHYPQLIEINGAGKMVWDLNDNATFGMISSICPID | not soluble |
| MLHITAAKARAGGQIGGVFCLAQCSLNVLVSGMQTQPLPPLISARPVGRGARSNDAGRFEPLERVAEHDGWEREEELPPLRTQVSLETARSLISYNRSPDLPFDRSINPYRGCEHGCSYCFARPSHAYLGLSPGLDFETRLVARPNAAEVLRAELSARRYKVAPIAIGTNTDPYQPLEKTHAITRACLQVLAEFNHPVAIVTRGALIERDLDILAPMAARGLVRVGISLTTLDAALARRMEPRAPSPKRRLAMIRALNGAGVPVRVMTSPLIPGLTDHELESLLAAGAEAGADTASWIMLRLPREVSPLWQEWLAEHAPARAAKVMARLREMHGGRDYDPRWGHRMRGEGEYAQMIAKRFRAACKRIGLAQEAPALRCDLFRVPPQPGDQLSLF | not soluble |
| MIPPSLPAELKAALEQLLQGTQRADAATRAERISLNYRGGGTSAPITSEADALAYAGARMPATYAAVIACLNALTAIRPDFAPATLLDVGAGPGTASWAAAQAFESLQGFTLLDANPALRNLALRLTEARRLSAIDYRLGDAGKALADAPEVTLVIASYLINELGDAARASFADALWRKTSDTLLVVEPGTPAGYQRILQLRDRLIAQGAHVIAPCPHENACPLAAPDWCHFVQRLPRSKLHLQLKSADVPFEDEKFSYVALTRVPLPQRPARVLTQPEQTKAAITAKLCTPAGKLKLAVAARRDKPAYARFRRLDWGDALEAQADLEHHHHHH | not soluble |
| LTYLNYYGKEKPELVYTKIAQSSQQDAFNISKRSQKEMDKQKTWAMVLNQDGQIVQSYRLPQQLKRHYTNADMVKFSRWYLDDYPVFSYVRGQQILVFGYPKKYSLAKFNFYLNTQFIK | not soluble |
| MGSDKIHHHHHHMTHPQDQHPPQDARTLPTRDHDASEALLERVRQAAATGTALRLVGGGSKGFYGRPVVGETLSLAEHTGIVNYDPVELVVTVRAGTRLADLQAVLAQEGQQLAFEPPHFGENATVGGTVACGLSGPRRPWAGSVRDFVLGTRMITHDGKRLHFGGEVMKNVAGYDLSRLMVGAQGTLGIIDEVSFKVLPRPAASATLRLEMGLGDAMARLAEWGRKPMPITGAAHDGETLHLRLEGGASSVANTQAQLGGELDDTAFWTQLRELELAFFSRRHDDRPLWRLSLPHRAPPLALDGDTLVDWAGAQRWLRSELPAATIRQHAAQAGGHATLVDRDRAHGVDAPFTPLSVVMDKYHRQLKAKLDPKGIFNPGRLYEGL | not soluble |
| MRTHDDTWDIKTSVGATAVMVAAARAVETDRPDPLIRDPYARLLVTNAGAGAIWEAMLDPTLVAKAAAIDAETAAIVAYLRSYQAVRTNFFDTYFASAVAAGIRQVVILASGLDSRAYRLDWPAGTIVYEIDQPKVLSYKSTTLAENGVTPSAGRREVPADLRQDWPAALRDAGFDPTARTAWLAEGLLMYLPAEAQDRLFTQVGAVSVAGSRIAAETAPVHGEERRAEMRARFKKVADVLGIEQTIDVQELVYHDQDRASVADWLTDHGWRARSQRAPDEMRRVGRWVEGVPMADDPTAFAEFVTAERL | soluble |
| MDKESVDTLFGMGLTAYQAKDYTKAIHALEHLREHDPSYTTLYSYLAKSYEENGEPEKAIAVLRDGLTQDEFNKEMFLEAGKLAVTLRLPEEAEEFYRQAIVLDEEFSEAIMQLNKLLLAKENYEGVIELVEGLGEEVISEPQIFWDVSVAYQETEQYNKAKANYELAYPHFTNNPTFLKEYGLFLREEGEHAKSQEVLRSYLELEPEDTEILSLFDLEHHHHHH | soluble |
| MGSDKIHHHHHHMLDKRAQILLKTLIEHYISDGQPVGSRKLSVASGLDLSPASIRNIMSELEDHGFIASPHTSAGRIPTQRGYRLFVDTLLTVQPLQNQEIRKLENVLSSPDPQELINKAAELLSSLTHFAGLVMIPKRQGAAFRHLEFLPLSEKRILVIIVTTDGAVQNRIILAEKPYSASDLTQASNFFNQHYAGNTLDEVKQKLHEELKQMQSDMTRLMAAALEASSKTADNKDGVVIAGKRNLLDVQDLSTNVSSLRKLFEMFEHRTSLMQLLDQSQKASGVQIFIGGESGYLPLDECSMVTAPYETNGQTIGTLGVIGPTRMAYERVIPIVDITAKLLSNALSNNH | not soluble |
| MVTKFLIFVSENQQLTSKFNLVTRQNADLKIGLRGVLFSIQGLREELSVAKQRIEEMKEDSFFESMPKLEREAPAFMDSPAETSSPDVEMEDVVYEEVVKETEVANF | not soluble |
| MTDQPDLFGLAPDAPRPIIPANLPEDWQEALLPEFSAPYFHELTDFLRQERKEYTIYPPAPDVFNALRYTPLGEVKVLILGQDPYHGPNQAHGLSFSVRPGVRVPPSLRNIYKELTEDIPGFVAPKHGYLRSWAEQGVLLLNAVLTVRAGQANSHQGKGWEHFTDAVIKAVNAKEERVVFILWGSYARKKKKLITGKNHVVIESGHPSPLSEQYFFGTRPFSKTNEALEKAGRGPVEWQLPATVTEE | soluble |
| MSLANYIKDIREKVGHMPLIMVGVGAAYIKEEKVLLQERADTGGWGLPGGYMEYGESIEQTLKREFKEDAGLEIIDYKFLKNFDREFFKYPNGDQTQVLTPFYLVTKVKEGKPQFDPHETSRVDFFDFNDLPEIHFASHKRILTYLQDILEGHHHHHH | not soluble |

###

# experiment description: soluble on expression in E. coli; label from the status in PepcDB or PDB records

| polymer sequence | soluble on expression in E. coli |
| --- | --- |
| MSKYSDAKELASLTLGKKTEYANQYDPSLLQPVPRSLNRNDLHLSATLPFQGCDIWTLYELSWLNQKGLPQVAIGEVSIPATSANLIESKSFKLYLNSYNQTRFASWDEVQTRLVHDLSACAGETVTVNVKSLNEYTAEPIVTMQGECIDDQDIEIANYEFDDALLQGAAQGEEVSEVLHSHLLKSNCLITNQPDWGSVEIAYHGAKMNREALLRYLVSFREHNEFHEQCVERIFTDIMRYCQPQSLTVYARYTRRGGLDINPFRSSHQSAPNHNQRMARQ | not soluble |
| MGSDKIHHHHHHMKAVNENLKEQFVKRNKLAICATLRELKKNDTSLMVHHSHGQFISKILDVVPDNNLFVFDLGGIERENSRALYAGALSFIAEPAGAKVEFNAEIAKTVNYDGLPAFSAQIPELLYLIQRRTYFRINTPLWPPLTCRGELPDDSVFTFTIKDLSLGGLSLYTDRDTTGLLTEGDIIKSVEMDLADHGFFCVDLQFVGQAMVKIVDNKGELKLTQRLSFKFPSLNAAQERDLQQVIFELEKLQNEKKKRFQEL | not soluble |
| MGSDKIHHHHHHMSTPQFGRKVSLIIGQDSGDALDLSELRFRFDVRRGDLQTPNSARVRVYNVSPDTARRAQREFSRLVLQAGYPGNFGIIFDGTIKQVRRGRENQTDTYLDITAADGDSAYNFAVVNTTLAAGSTPSDHVAAACTAMNPYGVTQGYLPSLPSNPLPRGKVMFGMAREFMRWTARTCQTVWSIQDGKAIMVPETSYMPGEIPVITAETGMVGLPEQTQNGIAIKMLLNPSVKIGRLIQIDNASVQQYEYSLNVGQQAQNERIEQQAKLQDDGFYYVMLAEHYGDTRGNDFYTDVICLAADVTVLPDSFRDKAAVPPDNVIKRFG | not soluble |

###

# experiment description: soluble on expression in E. coli; label from the status in PepcDB or PDB records
experimental readout: soluble on expression in E. coli

| polymer sequence | result value |
| --- | --- |
| MSLEKAPHLTILVSIDGFRADYLDRGDTPVMKALAENGARAAMRPSFPSVTFPNHYTLITGKRPDRNGIVANTMVDPSVSAEKFTMRSLDPAWWSQAKPFWVSVEQQGKRAAAMFWPGSEVEIDGVRPSRWVKFDQTMPGDARVDQVLNWLDSADGPPIAFSTLYFDIVDTQGHHYGPESPEVRAAAASVDAALGRLVAGLKARGRFESTDIVIVADHGMAPLPAANRVVLDDLVDVSKIRLVTTGAVTAFSPMPGERKAVEAAFLSKPLPHMTCWKKNRIPARFHYGRNSRVPAIVCLSETGWYTTTEAAKQKPSEWDGKDGGAHGFDPYDPTMQAVFVAHGPSFKSGVALPAFDNVDVYALLAKVTGVRPEKTDGSLKVVREEGHHHHHH | not soluble |
| MGSDKIHHHHHHMLRGMYTASGAMQALQRQQEMLSNNLANARTPGFRADQASLRTFPEMMIQQSGVNEQSGVRSRGTVGKLATGVFMQAATPNFALGSITETGNATDLQISSLEGAALFTIRHADPATGEEETLYTTNGQFAVGQDGLLRTTENDLVLGDAGQPLNVVNEDFTVSADGAVTDGNGQAIGNLGLVVTNQPETLERTGNGLFRSPDALNGGAIKVDQGVLELGNVEVEQTMTEMNAGLRQFEANQKVIQAYDRTAEKAVSEIGRVR | not soluble |

Where these numbers come from: the DeepSol protein solubility set
